Target: T1, 6His-Fc-FGFR1c (human, UniProt P11362 141-376)
T1 construct: not shown: 6His tag and Fc as named in '6His-Fc-FGFR'
T1 sequence: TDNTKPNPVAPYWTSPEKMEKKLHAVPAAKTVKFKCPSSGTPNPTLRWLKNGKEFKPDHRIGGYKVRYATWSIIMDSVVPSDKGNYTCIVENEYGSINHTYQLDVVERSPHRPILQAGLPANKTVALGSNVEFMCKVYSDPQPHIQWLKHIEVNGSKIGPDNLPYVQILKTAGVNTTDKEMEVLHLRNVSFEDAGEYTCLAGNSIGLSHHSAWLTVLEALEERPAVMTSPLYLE
Test: competition ELISA, blocks 6His-Fc-FGFR1c binding to coated FGF2
Readings of IC50 for the listed binders

BINDER	IC50, nM
Ab76 (antibody, human IgG2, kappa, V domains shown, format in the assays not spelled out) VH: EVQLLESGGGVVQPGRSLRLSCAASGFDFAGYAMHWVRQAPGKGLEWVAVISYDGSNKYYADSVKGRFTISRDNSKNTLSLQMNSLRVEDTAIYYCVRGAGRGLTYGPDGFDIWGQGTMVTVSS VL: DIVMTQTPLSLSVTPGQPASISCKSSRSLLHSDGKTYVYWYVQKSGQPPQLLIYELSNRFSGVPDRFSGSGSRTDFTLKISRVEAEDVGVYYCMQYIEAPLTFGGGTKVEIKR	6.3
Ab49 (antibody, human IgG2, kappa, V domains shown, format in the assays not spelled out) VH: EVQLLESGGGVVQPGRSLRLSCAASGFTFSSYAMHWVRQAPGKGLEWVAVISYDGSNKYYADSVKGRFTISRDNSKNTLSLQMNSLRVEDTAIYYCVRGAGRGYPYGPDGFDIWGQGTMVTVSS VL: DIVMTQTPLSLSVTPGQPASISCRSSRSLLHSDGKTYVYWYVQKSGQPPQLLIYELSNRFSGVPDRFSGSGSRTDFTLKISRVEAEDVGVYYCMQYIEAPLTFGGGTKVEIKR	4.67
Ab89 (antibody, human IgG2, kappa, V domains shown, format in the assays not spelled out) VH: EVQLLESGGGVVQPGRSLRLSCAASGFTFSSYAMHWVRQAPGKGLEWVAVISYDGSNKYYADSVKGRFTISRDNSKNTLSLQMNSLRVEDTAIYYCVRGAGRGFPYGPDGFDIWGQGTMVTVSS VL: DIVMTQTPLSLSVTPGQPASISCRSSRSLLHSDGKTYVYWYVQKSGQPPQLLIYELSNRFSGVPDRFSGSGSRTDFTLKISRVEAEDVGVYYCMQYIEVPLTFGGGTKVEIKR	11.1
